- experimental context: Ebola virus entry assay, blue channel fluorescence
Calls of active or inactive are those of the source.
Hi! Could you answer with just one of these? t (active), f (inactive)

Take a look at these entries with their results.
{"columns": ["compound", "assigned label"],
 "data": [
  ["CN1CCC[C@@H]1Cc1c[nH]c2ccc(CCS(=O)(=O)c3ccccc3)cc12", "t"],
  ["CC(=O)O[C@@]12CO[C@@H]1C[C@H](O)[C@@]1(C)C(=O)[C@H](O)C3=C(C)[C@@H](OC(=O)[C@H](O)[C@@H](NC(=O)OC(C)(C)C)c4ccccc4)C[C@@](O)([C@@H](OC(=O)c4ccccc4)[C@H]21)C3(C)C", "f"]
]}

In this assay, the call recorded for `C[C@@H](NCCCc1cccc(C(F)(F)F)c1)c1cccc2ccccc12` was what?
t

For `CCn1cc(C(=O)O)c(=O)c2ccc(C)nc21` , which call appears in the assay record?
f

Which result was noted for this compound in the test: CCC(C)n1ncn(-c2ccc(N3CCN(c4ccc(OC[C@H]5CO[C@](Cn6cncn6)(c6ccc(Cl)cc6Cl)O5)cc4)CC3)cc2)c1=O (stereo partly drawn)
f

Check the results log: what was the call for `Cc1oncc1C(=O)Nc1ccc(C(F)(F)F)cc1` ?
f

Status in this test for `C[C@@H](O)[C@H]1C(=O)N2C(C(=O)O)=C(S[C@@H]3CN[C@H](CNS(N)(=O)=O)C3)[C@H](C)[C@H]12` ?
f

Hi, sorry to bother you, what did the test record for `CC(=O)[C@H]1CC[C@H]2[C@@H]3CC[C@H]4C[C@H](O)CC[C@]4(C)[C@H]3C(=O)C[C@]12C` ?
f

Can you look up the reported call for `O=C(NCCN1CCOCC1)c1ccc(Cl)cc1` for me?
f

Recorded test outcome, item `CCCCNC(=O)NS(=O)(=O)c1ccc(C)cc1`
f

What did the test return for `Nc1cc(-c2ccncc2)c[nH]c1=O` ?
f

Lab log entry: `N[C@@H](Cc1ccc(Oc2cc(I)c(O)c(I)c2)c(I)c1)C(=O)O` — outcome as called in the assay?
f

So what was the verdict on `CN(C)CC/C=C1\c2ccccc2COc2ccccc21` in this test?
t

---

- run description: Cytotoxicity counterscreen for NFkB agonists and antagonists (AID 624476);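 note: cells exposed to compound for 48 hours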; note: potency is the fitted concentration of half-maximal effect
- experimental context: NFkB reporter cell line viability counterscreen; series mostly up to 46.1 µM
Inconclusive results are not listed. Activity calls are given as the source filed them. The call rests on the fitted dose curve; in most records, active means well fitted curve in the direction sought with a large enough effect; inconclusive means small, poorly fitted or top-dose-only effect, or another doubt; inactive means no such curve, though single readings can be large or run the other way.
measurement type: Potency

{"columns": ["mol smiles", "measurement type", "val"],
 "data": [
  ["Cc1cc2c(C(C)C)c(O)c(O)c(C=O)c2c(O)c1-c1c(C)cc2c(C(C)C)c(O)c(O)c(C=O)c2c1O", "Potency", "4.69 µM (active)"],
  ["COc1ccc(C(=O)c2c(C)n(CCN3CCOCC3)c3ccccc23)cc1", "Potency", "inactive"],
  ["Cn1c(CCCC(=O)O)nc2cc(N(CCCl)CCCl)ccc21", "Potency", "inactive"]
]}

---

- study system: ATP-dependent 6-phosphofructokinase (Trypanosoma brucei brucei) (UniProt O15648)
- Sequence (O15648 whole entry, looked up): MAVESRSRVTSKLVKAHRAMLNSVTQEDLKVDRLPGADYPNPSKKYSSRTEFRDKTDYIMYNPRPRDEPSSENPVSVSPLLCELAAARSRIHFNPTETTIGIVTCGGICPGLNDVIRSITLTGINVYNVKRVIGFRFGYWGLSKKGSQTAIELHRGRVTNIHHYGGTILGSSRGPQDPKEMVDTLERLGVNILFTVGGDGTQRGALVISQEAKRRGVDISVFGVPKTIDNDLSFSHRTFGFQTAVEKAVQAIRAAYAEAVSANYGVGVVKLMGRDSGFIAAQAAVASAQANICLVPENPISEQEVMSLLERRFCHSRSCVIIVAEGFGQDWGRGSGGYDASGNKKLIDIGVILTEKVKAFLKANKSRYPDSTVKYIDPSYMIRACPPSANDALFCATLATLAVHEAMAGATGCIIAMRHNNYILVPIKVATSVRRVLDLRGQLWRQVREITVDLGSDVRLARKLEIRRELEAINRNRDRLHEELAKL
- run description: qHTS Validation Assay to Find Inhibitors of T. brucei phosphofructokinase (AID 485368)
- experimental context: T. brucei PFK enzyme assay, qHTS 7-point titration; series mostly up to 57.5 µM
Inconclusive results are not listed. Calls of active or inactive are those of the source. The call rests on the fitted dose curve; in most records, active means well fitted inhibition curve with a large enough effect; inconclusive means small, poorly fitted or top-dose-only effect, or effect the other way; inactive means flat fitted curve, though single readings scatter.
measurement type: outcome

{"columns": ["mol smiles", "study system", "measurement type", "val"],
 "data": [
  ["CC(=O)[C@H]1CC[C@H]2[C@@H]3CC[C@H]4C[C@](C)(O)CC[C@]4(C)[C@H]3CC[C@]12C", "ATP-dependent 6-phosphofructokinase (Trypanosoma brucei brucei) (UniProt O15648)", "outcome", "inactive"],
  ["NN=C(N)N", "ATP-dependent 6-phosphofructokinase (Trypanosoma brucei brucei) (UniProt O15648)", "outcome", "inactive"],
  ["CC[C@@H](CO)NC(=O)[C@@H]1C=C2c3cccc4c3c(cn4C)C[C@H]2N(C)C1", "ATP-dependent 6-phosphofructokinase (Trypanosoma brucei brucei) (UniProt O15648)", "outcome", "inactive"]
]}

---

- run description: Quantitative High-Throughput drug screen in 47 multiple myeloma cell lines against the NCATS MIPE library collection: LP1_DSMZ cell viability assay (AID 1918982); note: nearly all actives have a fitted effect of over 35% in size
- experimental context: LP1 myeloma viability, CellTiter-Glo ATP luminescence, 48 h; series mostly up to 45.8 µM
Inconclusive results are not listed. Activity calls are given as the source filed them. The call rests on the fitted dose curve; in most records, active means well fitted cell-killing curve with a large enough effect; inconclusive means small, poorly fitted or top-dose-only effect, or effect the other way; inactive means no such curve, though single readings can be large or run the other way.
I would appreciate it if you answered using one of these outcomes: active, inactive

Solved cases (2 shown):
{"columns": ["compound", "assigned label"],
 "data": [
  ["C[C@@H]1O[C@@H](O[C@H]2C[C@@H](O)[C@]3(CO)[C@H]4[C@H](O)C[C@]5(C)[C@@H](C6=CC(=O)OC6)CC[C@]5(O)[C@@H]4CC[C@]3(O)C2)[C@H](O)[C@H](O)[C@H]1O", "active"],
  ["COC1(CS(=O)c2ccccc2)CCN(CCc2c[nH]c3ccc(F)cc23)CC1 (centres undefined)", "inactive"]
]}

# outcome recorded in this test, key = `Fc1ccc(C(OCCN2CCN(CCCc3ccccc3)CC2)c2ccc(F)cc2)cc1`
active

Entry `NCC1(CC(=O)O)CCCCC1` : call = ?
inactive

---

- Test system: HaCat
- run description: Cytotoxic Profiling of Annotated Libraries Using Quantitative High-Throughput Screening (AID 1296008); note: % is set by controls: 0 for no effect and ±100 for the full control effect; nearly all actives have a fitted effect of over 60% in size
- experimental context: Five cell lines viability, CellTiter-Glo ATP luminescence, 48-72 h; hits give low values
Records with an inconclusive call do not appear.
Known max response of a selection of compounds
Reply numerically in %, unit not repeated.

{"columns": ["compound", "study system", "measurement type", "val"],
 "data": [
  ["CCOC(=O)C1(c2ccccc2)CCN(CCC(C#N)(c2ccccc2)c2ccccc2)CC1", "HaCat", "max response", -18.2],
  ["CC(C)(C)CC(C)(C)c1ccc(O)cc1", "HaCat", "max response", -11.5],
  ["Cn1cc(C2=C(c3cn(C4CCN(Cc5ccccn5)CC4)c4ccccc34)C(=O)NC2=O)c2ccccc21", "HaCat", "max response", -7.11],
  ["CCOP(=S)(OCC)Oc1cc(C)nc(C(C)C)n1", "HaCat", "max response", 0.572],
  ["Cc1cccc(C)c1NC1=NCCCS1", "HaCat", "max response", -7.27],
  ["O=C(O)C(=O)c1cn(Cc2ccccc2)c2ccc(-c3ccc(OC(F)(F)F)cc3)cc12", "HaCat", "max response", -0.483],
  ["Oc1cccc2cccnc12", "HaCat", "max response", 4.28],
  ["CC[C@@H](CO)NC(=O)[C@@H]1C=C2c3cccc4[nH]cc(c34)C[C@H]2N(C)C1", "HaCat", "max response", -5.68]
]}

# input compound: `C=CCN1CC[C@]23c4c5ccc(O)c4O[C@H]2C(=O)CC[C@@]3(O)[C@H]1C5` ; wanted: its max response
-19.7

Any idea what max response was measured for `C[C@]12CCC(=O)C(O)=C1CC[C@@H]1[C@@H]2CC[C@]2(C)C(=O)CC[C@@H]12` ?
-15.5

Any idea what its max response is? The compound is Clc1ccc(COC(Cn2ccnc2)c2ccc(Cl)cc2Cl)cc1 (stereo unspecified)
-11

Requested read-out: max response. Entry: CC(C)(C)NCC(O)c1cc(Cl)c(N)c(Cl)c1 (stereo unspecified)
-3.36

Reported max response, compound NCC(O)c1ccc(O)cc1 (stereo unspecified) : ____
-2.74

Find the recorded max response belonging to `C[C@]12CC[C@H]3[C@@H](CCC4=CC(=O)CC[C@@H]43)[C@@H]1CC[C@@H]2OC(=O)CCc1ccccc1` and report it.
1.58

Could you tell me which max response is on file for `CC(=O)[C@H]1CC[C@H]2[C@@H]3CC[C@H]4C[C@H](O)CC[C@]4(C)[C@H]3C(=O)C[C@]12C` ?
0.502

Give the measured max response of COC1(CS(=O)c2ccccc2)CCN(CCc2c[nH]c3ccc(F)cc23)CC1 (stereo unspecified) .
-21.9

---

- System: FAB9
- run description: qHTS profiling for inhibitors of Plasmodium falciparum proliferation (AID 504749); note: nearly all actives have a fitted effect of over 60% in size
- experimental context: P. falciparum in erythrocytes, SYBR Green DNA, 72 h; series mostly up to 28.7 µM
Results filed as inconclusive are left out. The source made the active and inactive calls. Calls come from the whole dose curve; as a rule, active = well fitted inhibition curve with a large enough effect; inconclusive = small, poorly fitted or top-dose-only effect; inactive = flat fitted curve, though single readings scatter.
Use one of these outcomes when replying: YES (active), NO (inactive)

Example results:
{"columns": ["molecule", "study system", "assigned label"],
 "data": [
  ["O=[N+]([O-])c1cc([As](=O)(O)O)ccc1O", "FAB9", "YES"],
  ["Cc1cccc(C)c1NC1=NCCCS1", "FAB9", "NO"]
]}

Please share the test call associated with O=C(NC(O)C(Cl)(Cl)Cl)NC(O)C(Cl)(Cl)Cl (configuration not stated) .
NO

I would be grateful if you could indicate the recorded call for `CC(C)(C)CC(C)(C)c1ccc(O)cc1` .
NO

Write down the call the test reported for this molecule. Item: CCC(C(N)=O)N1CCCC1=O (configuration not stated)
NO

Could you please tell me the result logged for c1ccc2c(c1)OCC(C1=NCCN1)O2 (configuration not stated) in this assay?
NO

Test call for this molecule, please: `CC(=O)Nc1cc([As](=O)(O)O)ccc1O`
NO

meta.source: PubChem BioAssay (NCATS)
